# TARGET OR SYSTEM: Sodium-dependent serotonin transporter (Rattus norvegicus, UniProt P31652)
# Sequence (P31652 whole entry): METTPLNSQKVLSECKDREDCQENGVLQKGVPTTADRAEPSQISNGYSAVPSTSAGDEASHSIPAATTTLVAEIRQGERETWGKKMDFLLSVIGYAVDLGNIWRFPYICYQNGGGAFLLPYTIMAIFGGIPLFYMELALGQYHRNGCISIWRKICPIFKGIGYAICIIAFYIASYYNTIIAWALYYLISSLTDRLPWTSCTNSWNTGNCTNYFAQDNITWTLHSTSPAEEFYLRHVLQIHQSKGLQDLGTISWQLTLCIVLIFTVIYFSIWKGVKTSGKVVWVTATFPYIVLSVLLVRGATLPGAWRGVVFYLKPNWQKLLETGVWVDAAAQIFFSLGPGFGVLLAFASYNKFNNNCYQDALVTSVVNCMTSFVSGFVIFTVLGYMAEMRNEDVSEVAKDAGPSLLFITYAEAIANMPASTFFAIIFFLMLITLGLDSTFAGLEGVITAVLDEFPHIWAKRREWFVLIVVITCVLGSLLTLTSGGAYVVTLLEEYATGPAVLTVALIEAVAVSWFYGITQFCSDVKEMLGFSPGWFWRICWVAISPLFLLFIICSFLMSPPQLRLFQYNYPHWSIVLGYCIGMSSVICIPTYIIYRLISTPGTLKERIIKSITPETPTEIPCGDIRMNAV

COMPOUND STRUCTURE STRING	RELATION OPERATOR	Ki / µM
Clc1ccccc1N1CCN(CCc2ccccc2)CC1	>	10
Clc1ccc(N2CCN(CCc3ccccc3)CC2)cc1	=	0.372
c1ccc(CCCN2CCN(c3ccccn3)CC2)cc1	>	10
Clc1cccc(N2CCN(CCCc3ccccc3)CC2)c1	=	0.488
Clc1ccccc1N1CCN(CCCc2ccccc2)CC1	=	0.409

* * *

Listed compounds paired with reported Ki
# TARGET OR SYSTEM: Sigma non-opioid intracellular receptor 1 (Rattus norvegicus)
# Sequence (Q9R0C9 whole entry): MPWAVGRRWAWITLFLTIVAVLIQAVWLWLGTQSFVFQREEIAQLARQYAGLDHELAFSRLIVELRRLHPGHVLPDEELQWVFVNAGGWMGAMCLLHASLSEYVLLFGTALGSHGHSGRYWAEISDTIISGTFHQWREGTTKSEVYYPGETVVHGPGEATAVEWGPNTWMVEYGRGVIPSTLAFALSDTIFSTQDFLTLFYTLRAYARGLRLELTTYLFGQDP
# ASSAY: Displacement of [3H](+)-pentazocine from sigma1 receptor in rat brain after 120 mins by liquid scintillation counting analysis

COMPOUND STRUCTURE STRING	Ki / nM
Clc1ccc(N2CCN(CCCc3ccccc3)CC2)cc1	0.12
Clc1ccc(N2CCN(CCc3ccccc3)CC2)cc1	1.85
Clc1ccccc1N1CCN(CCCc2ccccc2)CC1	0.56
Clc1ccccc1N1CCN(CCc2ccccc2)CC1	0.15
Clc1cccc(N2CCN(CCc3ccccc3)CC2)c1	6.47
Clc1cccc(N2CCN(CCCc3ccccc3)CC2)c1	4.93

* * *

Each item that follows carries a reported Ki.
# ASSAY: Displacement of [3H]nisoxetine from norepinephrine transporter in rat cerebral cortex after 120 mins by liquid scintillation counting analysis
# Format: tissue-based
REPORTED METRIC: Ki

COMPOUND STRUCTURE STRING	RECORDED RESULT
Clc1ccccc1N1CCN(CCCc2ccccc2)CC1	> 10 µM
Clc1ccccc1N1CCN(CCc2ccccc2)CC1	0.79 µM
Clc1ccc(N2CCN(CCc3ccccc3)CC2)cc1	> 10 µM
c1ccc(CCCN2CCN(c3ccccn3)CC2)cc1	> 10 µM
Clc1cccc(N2CCN(CCc3ccccc3)CC2)c1	1.11 µM
Clc1ccc(N2CCN(CCCc3ccccc3)CC2)cc1	> 10 µM
Clc1cccc(N2CCN(CCCc3ccccc3)CC2)c1	> 10 µM

* * *

# TARGET OR SYSTEM: UniProt P14842
# Sequence (P14842 whole entry): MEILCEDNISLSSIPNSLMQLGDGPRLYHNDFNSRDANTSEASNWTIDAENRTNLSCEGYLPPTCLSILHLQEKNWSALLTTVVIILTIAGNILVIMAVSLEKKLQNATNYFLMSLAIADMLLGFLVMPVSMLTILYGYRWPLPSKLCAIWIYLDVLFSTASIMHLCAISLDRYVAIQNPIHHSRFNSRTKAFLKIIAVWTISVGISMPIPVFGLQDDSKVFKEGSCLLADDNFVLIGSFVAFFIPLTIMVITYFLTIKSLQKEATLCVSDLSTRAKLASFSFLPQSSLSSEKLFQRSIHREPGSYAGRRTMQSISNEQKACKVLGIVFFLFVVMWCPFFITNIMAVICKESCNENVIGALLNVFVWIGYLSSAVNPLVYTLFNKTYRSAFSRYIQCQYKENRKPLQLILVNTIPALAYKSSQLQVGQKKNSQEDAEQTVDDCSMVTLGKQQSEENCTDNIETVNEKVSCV
pKi: −log10 of the molar value.

COMPOUND STRUCTURE STRING	pKi
Clc1ccccc1N1CCN(CCc2ccccc2)CC1	6.32
Clc1ccc(N2CCN(CCc3ccccc3)CC2)cc1	6.29

* * *

The compounds listed here are annotated with their pKi.
# TARGET OR SYSTEM: Sodium-dependent dopamine transporter (Rattus norvegicus, UniProt P23977)
# Sequence (P23977 whole entry): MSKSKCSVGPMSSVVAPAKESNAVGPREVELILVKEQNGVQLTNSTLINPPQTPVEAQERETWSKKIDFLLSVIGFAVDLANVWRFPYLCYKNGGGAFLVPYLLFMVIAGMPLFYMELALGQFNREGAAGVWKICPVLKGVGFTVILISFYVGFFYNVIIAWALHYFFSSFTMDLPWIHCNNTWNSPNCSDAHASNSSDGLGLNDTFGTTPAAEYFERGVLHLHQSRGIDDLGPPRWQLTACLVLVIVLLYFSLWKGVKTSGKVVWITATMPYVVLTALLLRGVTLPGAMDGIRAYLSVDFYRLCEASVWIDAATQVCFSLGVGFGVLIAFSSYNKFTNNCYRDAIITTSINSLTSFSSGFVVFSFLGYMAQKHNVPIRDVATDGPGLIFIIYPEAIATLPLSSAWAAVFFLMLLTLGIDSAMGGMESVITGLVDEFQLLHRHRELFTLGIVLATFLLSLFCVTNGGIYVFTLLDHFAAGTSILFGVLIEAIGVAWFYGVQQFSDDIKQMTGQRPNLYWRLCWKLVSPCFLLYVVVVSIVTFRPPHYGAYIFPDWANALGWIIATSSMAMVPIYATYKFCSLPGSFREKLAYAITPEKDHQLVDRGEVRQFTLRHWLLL
pKi: −log10 of the molar value.

COMPOUND STRUCTURE STRING	pKi
Clc1ccccc1N1CCN(CCc2ccccc2)CC1	9.89
Clc1ccccc1N1CCN(CCCc2ccccc2)CC1	6.32
Clc1ccc(N2CCN(CCc3ccccc3)CC2)cc1	8.22

* * *

pKi: recorded values
# ASSAY: Binding affinity to rat opioid receptor after 120 mins by radioligand displacement assay
pKi: −log10 of the molar value.

COMPOUND STRUCTURE STRING	pKi
Clc1cccc(N2CCN(CCc3ccccc3)CC2)c1	< 5.00
Clc1ccccc1N1CCN(CCCc2ccccc2)CC1	5.34
Clc1ccc(N2CCN(CCCc3ccccc3)CC2)cc1	< 5.00
Clc1ccc(N2CCN(CCc3ccccc3)CC2)cc1	< 5.00
Clc1cccc(N2CCN(CCCc3ccccc3)CC2)c1	< 5.00
Clc1ccccc1N1CCN(CCc2ccccc2)CC1	5.32
c1ccc(CCCN2CCN(c3ccccn3)CC2)cc1	< 5.00

* * *

# Organism: Rattus norvegicus
# ASSAY: Selectivity ratio of Ki for rat brain sigma1 receptor to Ki for rat striatum dopamine transporter
# Format: tissue-based
Recorded Ratio Ki, one value per entry.

COMPOUND STRUCTURE STRING	Ratio Ki
c1ccc(CCCN2CCN(c3ccccn3)CC2)cc1	0.009
Clc1ccccc1N1CCN(CCCc2ccccc2)CC1	0.0012
Clc1ccccc1N1CCN(CCc2ccccc2)CC1	1.15
Clc1cccc(N2CCN(CCc3ccccc3)CC2)c1	162
Clc1ccc(N2CCN(CCc3ccccc3)CC2)cc1	0.31
Clc1ccc(N2CCN(CCCc3ccccc3)CC2)cc1	4.5e-05

* * *

Form field: Ki (one value per entry).
# TARGET OR SYSTEM: D(2) dopamine receptor (Rattus norvegicus)
# Sequence (P61169 whole entry): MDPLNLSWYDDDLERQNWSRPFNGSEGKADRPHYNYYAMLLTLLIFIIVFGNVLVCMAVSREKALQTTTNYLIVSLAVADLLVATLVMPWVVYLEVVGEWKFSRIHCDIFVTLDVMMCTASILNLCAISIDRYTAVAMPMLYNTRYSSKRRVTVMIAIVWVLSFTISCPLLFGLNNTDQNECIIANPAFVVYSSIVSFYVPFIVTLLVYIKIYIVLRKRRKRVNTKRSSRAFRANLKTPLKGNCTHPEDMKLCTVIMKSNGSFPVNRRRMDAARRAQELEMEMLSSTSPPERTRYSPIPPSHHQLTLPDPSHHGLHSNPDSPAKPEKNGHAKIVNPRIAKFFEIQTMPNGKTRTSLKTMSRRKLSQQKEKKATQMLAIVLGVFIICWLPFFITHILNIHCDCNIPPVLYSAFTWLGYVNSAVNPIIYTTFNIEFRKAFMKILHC
# ASSAY: Displacement of [3H](-)-sulpiride from dopamine D2 receptor in rat brain after 120 mins by liquid scintillation counting analysis

COMPOUND STRUCTURE STRING	Ki
Clc1ccccc1N1CCN(CCCc2ccccc2)CC1	77 nM
Clc1ccc(N2CCN(CCc3ccccc3)CC2)cc1	834 nM
Clc1cccc(N2CCN(CCc3ccccc3)CC2)c1	327 nM
Clc1cccc(N2CCN(CCCc3ccccc3)CC2)c1	128 nM
Clc1ccc(N2CCN(CCCc3ccccc3)CC2)cc1	660 nM
c1ccc(CCCN2CCN(c3ccccn3)CC2)cc1	940 nM
Clc1ccccc1N1CCN(CCc2ccccc2)CC1	67 nM

* * *

# Species on record: Rattus norvegicus
# ASSAY: Selectivity ratio of Ki for rat brain sigma1 receptor to Ki for rat brain sigma2 receptor
# reported Ratio Ki; entries follow

COMPOUND STRUCTURE STRING	Ratio Ki
c1ccc(CCCN2CCN(c3ccccn3)CC2)cc1	16.7
Clc1ccccc1N1CCN(CCc2ccccc2)CC1	0.003
Clc1ccc(N2CCN(CCCc3ccccc3)CC2)cc1	0.011
Clc1ccccc1N1CCN(CCCc2ccccc2)CC1	0.072
Clc1cccc(N2CCN(CCc3ccccc3)CC2)c1	0.079
Clc1ccc(N2CCN(CCc3ccccc3)CC2)cc1	0.056
Clc1cccc(N2CCN(CCCc3ccccc3)CC2)c1	0.39

* * *

Quick reference for Ki among some compounds
# ASSAY: Displacement of [3H]di-o-tolylguanidine from sigma2 receptor in rat brain after 120 mins by liquid scintillation counting analysis
# Assay type: tissue-based
REPORTED METRIC: Ki

COMPOUND STRUCTURE STRING	RECORDED RESULT
Clc1cccc(N2CCN(CCCc3ccccc3)CC2)c1	0.0126 µM
c1ccc(CCCN2CCN(c3ccccn3)CC2)cc1	0.0049 µM
Clc1ccc(N2CCN(CCCc3ccccc3)CC2)cc1	0.0109 µM
Clc1ccccc1N1CCN(CCc2ccccc2)CC1	0.0563 µM
Clc1cccc(N2CCN(CCc3ccccc3)CC2)c1	0.0823 µM
Clc1ccccc1N1CCN(CCCc2ccccc2)CC1	0.00779 µM
Clc1ccc(N2CCN(CCc3ccccc3)CC2)cc1	0.0333 µM
